# Tested on: MOLT-4 leukemia
# experimentSummary: NCI tumour cell line growth inhibition, 48 h; in the data active = GI50 below about 0.43 µM; inactive = the rest
Classes used: active, inactive

1) Cc1cc(NS(=O)(=O)c2ccc(NC(=O)COc3ccc(-c4cc5ccccc5[nH]4)cc3)cc2)no1 ... inactive
2) COc1ccccc1N(C(C)=O)C1=C(Cl)C(=O)c2ccccc2C1=O ... inactive
3) O=c1[nH]cc(CO)c(=O)[nH]1 ... inactive
4) O=C1NC(=O)C(N2CCc3ccccc32)=C1c1ccc(Cl)cc1 ... inactive
5) O=C1c2ccccc2-c2c1c1c(O)cccc1n2CCCc1ccccc1 ... inactive
6) Cc1ccn2c(-c3csc(Nc4cccc(O)c4)n3)c(C)nc2c1 ... inactive
7) COc1cccc2c1C(=O)c1c(O)c3c(c(O)c1C2=O)C[C@@](O)(C(C)=O)C[C@@H]3OC1CC(N(C)C)C(O)C(C)O1 (stereo not given in full) ... active
8) Cc1ccc(NC(C(=O)c2ccccc2)c2ccccc2)cc1 (stereo not given) ... inactive
9) [CH3][Sn]([CH3])([CH3])[O]C(=O)C(O)c1ccccc1 (stereo not given) ... inactive
10) Cc1ccc(-c2c3c(N)nc(-c4ccncc4)nc3nc3c2c(C)nn3-c2ccccc2)cc1 ... inactive

----------
# Tested on: OVCAR-5 ovarian
# experimentSummary: NCI tumour cell line growth inhibition, 48 h
compounds and their reported GI50
quantityName: GI50

1. CCOC(=O)c1c(C(F)(F)F)n([O-])c2ccc(Cl)cc2[n+]1=O ... 1.76 µM
2. [CH3][Sn]([CH3])([CH3])[O]C(=O)C(O)c1ccccc1 (centres undefined) ... 9.91 µM
3. Cc1ccc(C2NC(=S)N3C(c4ccc(C)cc4)NC(=S)N23)cc1 (centres undefined) ... 14.7 µM
4. CC(=O)NC1CCCN(O)C(=O)/C=C(/C)CCOC(=O)C(NC(C)=O)CCCN(O)C(=O)/C=C(/C)CCOC(=O)C(NC(C)=O)CCCN(O)C(=O)/C=C(/C)CCOC1=O.[Fe] (centres undefined) ... > 100 µM

----------
# log10 TGI per record follows
# System: SR leukemia
# experimentSummary: NCI tumour cell line growth inhibition, 48 h
quantityName: log10 TGI (log10 of the value in µM)

1) Cc1cc(O)c2c(c1)C(=O)C=C(Br)C2=O ... 1.62
2) CCOC(=O)C1=C(C)NC(C)=C(C(=O)OCC)C1c1cc(Br)c(O)c(OC)c1 ... 1.33
3) C[As](C)SCC(NC(=O)CCC(N)C(=O)O)C(=O)NCC(=O)O.Cl.c1ccncc1 (stereo not given) ... -1.12
4) COc1ccc(C(=O)/C=C/c2ccc(OCC#N)cc2)cc1OC ... 1.79
5) CC12OC3(C(O)C1O)C(C(=O)O[C@H]3CO[Si](C)(C)C(C)(C)C)C2S(=O)(=O)c1ccccc1 (stereo not given in full) ... 1.94

----------
# Tested on: M14 melanoma
# experimentSummary: NCI tumour cell line growth inhibition, 48 h; in the data active means GI50 below about 0.43 µM; inactive means the rest
Outcome codes: t for active, f for inactive

1. COc1ccc(Oc2nc(Nc3ccc(N4CCOCC4)cc3)ncc2NC(=O)Nc2cc(OC)cc(OC)c2)cc1 ... f
2. COc1ccc(-c2nnc(Nc3nc(O)c(C4=c5cc(OC(F)(F)F)ccc5=NC4=O)s3)o2)cc1 ... f
3. CC(=O)NC1CCCN(O)C(=O)/C=C(/C)CCOC(=O)C(NC(C)=O)CCCN(O)C(=O)/C=C(/C)CCOC(=O)C(NC(C)=O)CCCN(O)C(=O)/C=C(/C)CCOC1=O.[Fe] (stereo not given) ... f
4. O=C(Nc1ccc2cc3ccc(NC(=O)N4CCCCCC4)cc3nc2c1)N1CCCCCC1 ... f
5. Cc1ccn2c(-c3csc(Nc4cccc(O)c4)n3)c(C)nc2c1 ... t
6. CC(=O)Nc1cc(C(c2ccccc2)c2ccccc2)cc(C(c2ccccc2)c2ccccc2)c1C ... f
7. CCN1CCN(CC(=O)Nc2nc3ccc(NCc4ccc(C)cc4)cc3s2)CC1 ... f
8. O=Cc1c[nH]c2ccc(-c3csc4ccccc34)cc12 ... f
9. Cc1ccc(-n2nnc3c(sc4ccccc43)c2=O)cc1 ... f
10. Cc1cc(C(=O)N2CCN(C)CC2)c2c(=O)n(-c3ccccc3)c(=O)n(CC(O)CN3CCN(c4ncccn4)CC3)c2n1 (stereo not given) ... f

----------
# Test system: UACC-62 melanoma
# experimentSummary: NCI tumour cell line growth inhibition, 48 h
Each entry below carries its reported TGI.
quantityName: TGI

1) CC(N)CN.CC(N)CN.[Cl-].[O]=[Os+2]=[O] (stereo unspecified) ... > 100 µM
2) COc1cc2c(cc1OCc1ccccc1)N=C[C@@H]1C[C@@H](F)CN1C2=O ... 0.369 µM
3) O=C1C=Cc2c1csc2Br ... > 100 µM
4) O=C1NC(=O)C(N2CCc3ccccc32)=C1c1ccc(Cl)cc1 ... > 25 µM
5) COc1ccc2oc(-c3cc4cc(OC)ccc4o3)cc2c1 ... > 100 µM
6) Nc1nccc2c1ncn2C1C=C(CO)C(O)C1O (stereo unspecified) ... > 1000 µM
7) O=[N+]([O-])c1ccc(Oc2cccc(C(F)(F)F)c2)c([N+](=O)[O-])c1 ... 15.2 µM
8) CCOc1ccc(/C=N\N2C(=O)c3ccccc3C2=O)cc1 ... > 100 µM
9) CC(=O)N1N=C(c2ccc3ccccc3c2O)CC1c1ccc(Cl)cc1Cl (stereo unspecified) ... > 100 µM
10) CCN1CCN(CC(=O)Nc2nc3ccc(NCc4ccc(C)cc4)cc3s2)CC1 ... 2.06 µM
11) O=C(OCC(Cl)(Cl)Cl)N1CC[C@@H](C2CCCCC2)C1 ... 85.5 µM
12) Oc1[nH]c2ccc(Cl)cc2c1/C=c1/ccc2c(c1)N=C(c1ccc(C(F)(F)F)cc1)N=2 ... 4.06 µM
13) CC1C(O)[C@@]2(OC[C@@]34C(=O)CC5(O)[C@H](CCC6Cc7nc8c(nc7C[C@]65C)CC5CC[C@@H]6C7=C[C@H]9O[C@@]%10(O[C@@](C)(CO)C[C@@H]%10O)C(C)[C@@]9(O)[C@]7(C)[C@@H](O)CC6[C@]5(C)C8)C3=CC[C@H]4C2C)OC1(C)C (stereo partly specified) ... 0.00489 µM
14) C[C@]12CC[C@H]3[C@@H](CC=C4C[C@@H](O)CC[C@@]43C)[C@@H]1C[C@H](N1CCOCC1)[C@@H]2O ... > 100 µM
15) Cc1cc(NS(=O)(=O)c2ccc(NC(=O)COc3ccc(-c4cc5ccccc5[nH]4)cc3)cc2)no1 ... 3.26 µM
16) Nc1cccc(/C=C/CN2CCN(CCOC(c3ccccc3)c3ccccc3)CC2)c1 ... 31.7 µM
17) Cc1ccc(NC(C(=O)c2ccccc2)c2ccccc2)cc1 (stereo unspecified) ... > 100 µM
18) Nc1ncnc2c1nc(N)n2C1OC(CO)C(O)C1O (stereo unspecified) ... 1.2 µM
19) OCCSCc1cc(Cl)cc(Cl)c1O ... > 100 µM
20) Cc1ccc2nc3sc(=O)sc3nc2c1 ... 32.5 µM
21) NC(=O)c1ccccc1NC(=O)C(=O)Nc1n[nH]c(N)n1 ... > 100 µM

----------
# Test system: SNB-75 CNS
# experimentSummary: NCI tumour cell line growth inhibition, 48 h
quantityName: GI50

1) COc1cc(C2CC(=O)c3c(C)nn(-c4nc5ccccc5[nH]4)c3C2)cc(OC)c1OC (stereo not given) ... 1.72 µM
2) Cc1ccc(NC(C(=O)c2ccccc2)c2ccccc2)cc1 (stereo not given) ... 3.58 µM
3) O=C(N/N=C/c1ccncc1)c1ccc(C(F)(F)F)nc1Nc1cccc(C(F)(F)F)c1 ... 4.34 µM
4) O=C1c2ccccc2-c2c1c1c(O)cccc1n2CCCc1ccccc1 ... 51.7 µM
5) O=S1CCN(Cc2ccc(-c3ccc4ncnc(Nc5ccc(OCc6ccccc6)c(F)c5)c4c3)o2)CC1 ... > 13.1 µM
6) CC(=O)Nc1cc(C(c2ccccc2)c2ccccc2)cc(C(c2ccccc2)c2ccccc2)c1C ... 21.4 µM
7) Nc1cccc2c1CN(C1CCC(=O)NC1=O)C2=O (stereo not given) ... > 100 µM
8) CCN1CCN(CC(=O)Nc2nc3ccc(NCc4ccc(C)cc4)cc3s2)CC1 ... 2.69 µM
9) Cc1ccc2c(n1)C(=O)C(Cl)=C(Nc1ccc(N3CCN(C)CC3)cc1)C2=O ... 2.11 µM
10) Cc1cc(C(=O)N2CCN(C)CC2)c2c(=O)n(-c3ccccc3)c(=O)n(CC(O)CN3CCN(c4ncccn4)CC3)c2n1 (stereo not given) ... > 100 µM

----------
# System: SNB-75 CNS
# experimentSummary: NCI tumour cell line growth inhibition, 48 h
quantityName: TGI

1. CC(=O)NC1CCCN(O)C(=O)/C=C(/C)CCOC(=O)C(NC(C)=O)CCCN(O)C(=O)/C=C(/C)CCOC(=O)C(NC(C)=O)CCCN(O)C(=O)/C=C(/C)CCOC1=O.[Fe] (stereo unspecified) ... > 100 µM
2. COC[C@@H]1Cc2cc(OC)c3c(c2[C@H](c2ccc(OC)c(OC)c2)[C@H]1COC)OCO3 ... 83.2 µM
3. CC(C)CC(NC=O)C(=O)NC(Cc1ccccc1)NC(=O)CNC(=O)C(C)NC(=O)OC(C)(C)C (stereo unspecified) ... > 100 µM
4. C=CCC1(O)C(=O)OC2C(O)COC21O (stereo unspecified) ... > 100 µM
5. CC(=O)Nc1c(I)c(C(=O)O)c(I)c(N(C)C(C)=O)c1I ... > 100 µM
6. CC12OC3(C(O)C1O)C(C(=O)O[C@H]3CO[Si](C)(C)C(C)(C)C)C2S(=O)(=O)c1ccccc1 (stereo partly specified) ... 90.4 µM

Ref: PubChem BioAssay (NCI)
